# Experimental target: CCK-B receptor (Mus musculus)
# Sequence (P56481 whole entry): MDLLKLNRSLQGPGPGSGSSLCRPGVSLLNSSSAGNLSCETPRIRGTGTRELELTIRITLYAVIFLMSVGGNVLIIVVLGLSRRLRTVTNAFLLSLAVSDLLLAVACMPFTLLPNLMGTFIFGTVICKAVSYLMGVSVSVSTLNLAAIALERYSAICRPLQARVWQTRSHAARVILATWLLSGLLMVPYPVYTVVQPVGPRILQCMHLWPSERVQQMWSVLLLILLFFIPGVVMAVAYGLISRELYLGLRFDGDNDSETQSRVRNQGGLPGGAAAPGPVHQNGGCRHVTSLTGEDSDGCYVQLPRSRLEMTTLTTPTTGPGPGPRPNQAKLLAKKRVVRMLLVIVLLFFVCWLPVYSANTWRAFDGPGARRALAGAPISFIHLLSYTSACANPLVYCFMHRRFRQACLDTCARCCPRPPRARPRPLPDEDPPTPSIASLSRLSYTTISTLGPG
Test readout: Ki (nM)
Response body: numeric value in nM, unit text excluded.

Use these answered entries as a reference point.
| Molecule | Experimental target | Unit abbrev | Ki |
| --- | --- | --- | --- |
| CCOC(=O)CNC(=O)C[C@H](Cc1ccccc1)NC(=O)[C@@](C)(Cc1c[nH]c2ccccc12)NC(=O)OC1C2CC3CC(C2)CC1C3 (stereo partly drawn) [Compound 10k] | CCK-B receptor (Mus musculus) | nM | 17.9 |
| CCOC(=O)CCCNC(=O)C[C@H](Cc1ccccc1)NC(=O)[C@@](C)(Cc1c[nH]c2ccccc12)NC(=O)OC1C2CC3CC(C2)CC1C3 (stereo partly drawn) [Compound 10l] | CCK-B receptor (Mus musculus) | nM | 66.4 |
| COC(=O)CCNC(=O)C[C@H](Cc1ccccc1)NC(=O)[C@@](C)(Cc1c[nH]c2ccccc12)NC(=O)OC1C2CC3CC(C2)CC1C3 (stereo partly drawn) [Compound 10a] | CCK-B receptor (Mus musculus) | nM | 21.2 |
| COC(=O)CCCCCNC(=O)[C@H](Cc1ccccc1)NC(=O)[C@@](C)(Cc1c[nH]c2ccccc12)NC(=O)OC1C2CC3CC(C2)CC1C3 (stereo partly drawn) | CCK-B receptor (Mus musculus) | nM | 173 |
| C[C@](Cc1c[nH]c2ccccc12)(NC(=O)OC1C2CC3CC(C2)CC1C3)C(=O)N[C@@H](Cc1ccccc1)C(=O)NCC(=O)O (stereo partly drawn) | CCK-B receptor (Mus musculus) | nM | 7.41 |

In: Lab request: please report Ki under test system CCK-B receptor (Mus musculus) for C[C@](Cc1c[nH]c2ccccc12)(NC(=O)OC1C2CC3CC(C2)CC1C3)C(=O)N[C@H](CC(=O)NCCC(=O)O)Cc1ccccc1 (stereo partly drawn) [Compound 11a]
Out: 9.44

In: Lab request: please report Ki under test system CCK-B receptor (Mus musculus) for C[C@](Cc1c[nH]c2ccccc12)(NC(=O)OC1C2CC3CC(C2)CC1C3)C(=O)N[C@H](CC(=O)NCC(=O)O)Cc1ccccc1 (stereo partly drawn) [Compound 11k]
Out: 4.4

In: Lab request: please report Ki under test system CCK-B receptor (Mus musculus) for C[C@](Cc1c[nH]c2ccccc12)(NC(=O)OC1C2CC3CC(C2)CC1C3)C(=O)N[C@H](CC(=O)NCCCC(=O)O)Cc1ccccc1 (stereo partly drawn) [Compound 11l]
Out: 10.6

In: Lab request: please report Ki under test system CCK-B receptor (Mus musculus) for C[C@](Cc1c[nH]c2ccccc12)(NC(=O)OC1C2CC3CC(C2)CC1C3)C(=O)N[C@@H](Cc1ccccc1)C(=O)N[C@@H](CC(=O)O)C(=O)O (stereo partly drawn)
Out: 1170
